Molecular target: P-glycoprotein (MDR1) (Homo sapiens, UniProt P08183)
Sequence (P08183 whole entry): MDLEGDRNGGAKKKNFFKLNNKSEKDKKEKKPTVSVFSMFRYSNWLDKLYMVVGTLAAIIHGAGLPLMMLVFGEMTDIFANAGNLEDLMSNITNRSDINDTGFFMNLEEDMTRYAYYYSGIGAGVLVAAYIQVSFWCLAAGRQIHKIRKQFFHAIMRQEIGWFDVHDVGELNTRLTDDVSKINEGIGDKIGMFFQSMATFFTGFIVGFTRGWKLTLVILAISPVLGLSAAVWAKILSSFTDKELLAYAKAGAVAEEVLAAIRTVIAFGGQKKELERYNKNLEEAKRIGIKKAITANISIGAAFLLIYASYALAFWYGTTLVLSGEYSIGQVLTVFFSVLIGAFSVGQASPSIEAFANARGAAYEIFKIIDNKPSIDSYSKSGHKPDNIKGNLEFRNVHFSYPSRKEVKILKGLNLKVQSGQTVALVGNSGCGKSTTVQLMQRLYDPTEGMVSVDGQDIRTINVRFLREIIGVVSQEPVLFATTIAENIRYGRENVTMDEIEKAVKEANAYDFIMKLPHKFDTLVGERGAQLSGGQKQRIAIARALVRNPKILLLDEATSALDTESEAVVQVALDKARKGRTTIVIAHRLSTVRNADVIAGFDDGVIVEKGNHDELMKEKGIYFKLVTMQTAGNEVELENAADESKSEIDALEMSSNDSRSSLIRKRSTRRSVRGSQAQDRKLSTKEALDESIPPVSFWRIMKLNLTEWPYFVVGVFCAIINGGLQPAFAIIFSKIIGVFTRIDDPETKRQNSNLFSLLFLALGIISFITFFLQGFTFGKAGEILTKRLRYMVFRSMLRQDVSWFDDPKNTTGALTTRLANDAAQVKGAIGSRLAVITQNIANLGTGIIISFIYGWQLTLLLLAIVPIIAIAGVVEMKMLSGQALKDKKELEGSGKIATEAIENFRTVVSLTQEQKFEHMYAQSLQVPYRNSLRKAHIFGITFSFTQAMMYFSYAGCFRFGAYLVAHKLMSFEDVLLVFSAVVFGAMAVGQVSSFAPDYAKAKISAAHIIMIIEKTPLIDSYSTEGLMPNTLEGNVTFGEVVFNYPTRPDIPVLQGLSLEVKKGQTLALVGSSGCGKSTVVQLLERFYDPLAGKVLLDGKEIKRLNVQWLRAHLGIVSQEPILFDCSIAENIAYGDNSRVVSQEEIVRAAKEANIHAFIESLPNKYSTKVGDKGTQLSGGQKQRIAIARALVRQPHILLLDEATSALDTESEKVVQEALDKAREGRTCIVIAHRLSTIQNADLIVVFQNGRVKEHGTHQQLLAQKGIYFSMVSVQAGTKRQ
Assay: MDR1-MDCK transwell assay
Details: MDR1-MDCK transwell, 10 μM compound, 90 min; substrate when ER ≥ 2.0
Parameter: efflux ratio (ER)

COc1cc2nc(N3CCN(C(=O)c4ccco4)CC3)nc(N)c2cc1OC    high ERs
C=C[C@H]1C[N@@]2CC[C@H]1C[C@@H]2[C@@H](O)c1ccnc2ccc(OC)cc12    high ERs
Cn1cnc2c(F)c(Nc3ccc(Br)cc3F)c(C(=O)NOCCO)cc21    high ERs
CCCS(=O)(=O)Nc1ccc(F)c(C(=O)c2c[nH]c3ncc(-c4ccc(Cl)cc4)cc23)c1F    high ERs

Continue with the next compound.
Recorded efflux ratio (ER) (compound `COC(=O)c1cn2c3c(c(N4CCN(C)CC4)c(F)cc3c1=O)OC[C@@H]2C` ): 5.66
